Could you please report measured normalized growth for the items listed next?
- experimentalDetails: chemical genetic growth profiling, strain panel (AID 1159580);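 further: tested at 20 µM; growth read once vehicle control cultures reached saturation at 30 °C; 1 = growth at the plate median or of vehicle wells; lower values mean less growth of the strain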
- testSettings: S. cerevisiae deletion strains, growth OD, locus YHR030C, strain SLT2, hits give low values
Hit rate of the full screen: of about 5,500 compounds, about 2,000 (36%) were called active. Inconclusive results (about 18%) are left out. This is one part of the list.
Answers are plain numbers.

compound	experimentalReadout	endpointValue
O=C(N/N=C\c1ccccc1Cl)N/N=C\c1ccccc1Cl	normalized growth	0.363
CC(O)(CNCc1ccc(Cl)cc1)CSc1ccccc1Cl (configuration not stated)	normalized growth	0.938
O=C(Nc1ccccc1SCc1cccc(C(F)(F)F)c1)c1c(F)cccc1Cl	normalized growth	1.01
CC(C)(O)[C@@H]1CC[C@](C)([C@H]2[C@@H](O)C[C@@]3(C)C4C[C@H](O[C@@H]5O[C@H](CO)[C@@H](O)[C@H](O)[C@H]5O)C5C(C)(C)[C@@H](O[C@@H]6OC[C@@H](O)[C@H](O)[C@H]6O)CC[C@@]56C[C@@]46CC[C@]23C)O1 (some centres not stated)	normalized growth	0.954
FC(F)(F)c1ccc(-c2nc(-c3ccc4c(c3)OCCCO4)cs2)cc1	normalized growth	1.05

Quick one: give me normalized growth for each item below, same order please.
1. CC(=O)c1csc(-c2ccc(C(F)(F)F)cc2)n1
2. N#CC1COc2ccccc2O1 (configuration not stated)

OUT:
1: 0.761; 2: 1.03

---

- experimentalDetails: chemical genetic growth profiling, strain panel (AID 1159580)
- testSettings: S. cerevisiae deletion strains, growth OD, locus YEL003W, strain gim4, hits give low values
The whole screen tested about 5,500 compounds, of which about 2,000 (36%) were called active. About 18% were inconclusive and are not listed. The list shows a part of the results.
Could you please report measured normalized growth for the items listed next?
Give bare numbers.

compound	endpointValue
CCN1CCN(c2cc3c(cc2F)c(=O)c(C(=O)O)cn3C2CC2)CC1	1.01

Quick one: give me normalized growth for each item below, same order please.
1. CC(=O)Oc1cc(-c2coc3cc(OC(C)=O)c(OC(C)=O)c(OC(C)=O)c3c2=O)cc(OC(C)=O)c1OC(C)=O
2. CCC(/C=C/[C@@H](C)[C@H]1CCC2C3CC=C4C[C@@H](O)CC[C@]4(C)C3CC[C@@]21C)C(C)C (some centres not stated)
3. C/C(=C\C(=O)OCCCCCCCCC(=O)O)C[C@@H]1OC[C@H](C[C@@H]2O[C@H]2[C@@H](C)[C@H](C)O)[C@@H](O)[C@H]1O
4. CC(C)(Oc1ccc(Cl)cc1)C(=O)O
5. CNCCC=C1c2ccccc2CCc2ccccc21

OUT:
[0.877, 0.982, 0.969, 0.984, 0.972]

Quick one: give me normalized growth for each item below, same order please.
1. COc1ccc(-c2cc(=O)c3c(OC)c(OC)c(OC)c(OC)c3o2)cc1
2. CC(=O)Nc1ccc(OC(=O)c2ccccc2O)cc1
3. OC1C(O)C(O)C(O)C(O)C1O (configuration not stated)
4. CC(=O)OCC(=O)[C@H]1CCC2C3CC=C4C[C@@H](O)CC[C@]4(C)C3CC[C@@]21C (some centres not stated)

OUT:
1. 0.964
2. 0.978
3. 1.01
4. 0.894

Quick one: give me normalized growth for each item below, same order please.
1. CC1(C)O[C@@H]2CC3C4C[C@H](F)C5=CC(=O)C=CC5(C)C4C(O)CC3(C)[C@]2(C(=O)CO)O1 (some centres not stated)
2. CC(=O)Oc1ccc(-c2cc(=O)c3c(OC(C)=O)cc(OC(C)=O)cc3o2)cc1
3. CC(=O)Nc1ccc(O)cc1
4. CC(C)(C)C(=O)C(Oc1ccc(Cl)cc1)n1cncn1 (configuration not stated)

OUT:
1. 1.02
2. 0.961
3. 1.03
4. 0.154

Quick one: give me normalized growth for each item below, same order please.
1. CCC(CCC(C)[C@H]1CCC2C3CC=C4C[C@@H](O)CC[C@]4(C)C3CC[C@@]21C)C(C)C (some centres not stated)
2. O=C(O)c1cn(-c2ccc(F)cc2)c2cc(N3CCNCC3)c(F)cc2c1=O
3. CC(=O)[C@H]1CCC2C3CC=C4C[C@@H](O)CC[C@]4(C)C3CC[C@@]21C (some centres not stated)
4. CCn1cc(C(=O)O)c(=O)c2cc(F)c(N3CCNCC3)cc21
5. O=c1[nH]c2cc(Cl)c(Cl)cc2[nH]c1=O
6. COc1c(O)cc2c(-c3ccccc3)cc(=O)oc2c1OC
7. CC1(C)O[C@@H]2CC3C4CCC5=CC(=O)C=C[C@]5(C)[C@@]4(F)[C@@H](O)C[C@]3(C)[C@]2(C(=O)CO)O1 (some centres not stated)

OUT:
1. 1.01
2. 0.96
3. 0.938
4. 0.984
5. 0.993
6. 1.02
7. 0.991

---

- experimentalDetails: chemical genetic growth profiling, strain panel (AID 1159580);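 further: tested at 20 µM; growth read once vehicle control cultures reached saturation at 30 °C; 1 = growth at the plate median or of vehicle wells; lower values mean less growth of the strain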
- testSettings: S. cerevisiae deletion strains, growth OD, locus YNL233W, strain BNI4, hits give low values
The campaign covered roughly 5,500 compounds. About 2,000 (36%) were called active. Roughly 18% stayed inconclusive and do not appear here. This is one part of the list.
Could you please report measured normalized growth for the items listed next?
Give bare numbers.

compound	normalized growth
CC(=O)Oc1cc(OC(C)=O)c2c(=O)c(-c3ccccc3)coc2c1	1.02

Quick one: give me normalized growth for each item below, same order please.
1. CCN(CC)CCNc1ccc(CO)c2sc3ccccc3c(=O)c12
2. COc1cc(O)c2c(=O)c(-c3ccc(O)cc3)coc2c1
3. O=C(/C=C/c1ccccc1)c1ccc(O)cc1
4. COc1ccc2cc3[n+](cc2c1OC)CCc1cc2c(cc1-3)OCO2
5. CC(=O)CC(c1ccccc1)c1c(O)c2ccccc2oc1=O (stereo not given)
6. COc1ccc(C(=O)/C=C/c2ccccc2)cc1

OUT:
1: 0.955; 2: 0.809; 3: 0.621; 4: 0.593; 5: 1.01; 6: 0.777

Quick one: give me normalized growth for each item below, same order please.
1. CN1CCN2c3ccccc3Cc3ccccc3C2C1 (stereo not given)
2. CC(C)c1ccc2c(c1O)CC[C@H]1C3=C(CC[C@]21C)C(=O)OC3
3. COc1cc2cc[n+]3cc4c(OC)c(OC)ccc4cc3c2cc1OC
4. NC(=O)CC[C@@H](N)C(=O)O

OUT:
1. 1.02
2. 0.723
3. 1
4. 1.03

---

- experimentalDetails: chemical genetic growth profiling, strain panel (AID 1159580);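 further: tested at 20 µM; growth read once vehicle control cultures reached saturation at 30 °C; 1 = growth at the plate median or of vehicle wells; lower values mean less growth of the strain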
- testSettings: S. cerevisiae deletion strains, growth OD, locus YNL128W, strain TEP1, hits give low values
Out of some 5,500 compounds screened, about 2,000 (36%) were called active. Inconclusive results (about 18%) are left out. This is one part of the list.
In plain terms, low normalized growth, meaning strictly below 1, gives Yes, and everything else gives No.

> print(dat)
                                   compound  classification
1  CC(=O)CC(c1ccccc1)c1c(O)c2ccccc2oc1=O (stereo not drawn)              No
2  O=c1[nH]c(=O)n([C@H]2C[C@H](O)[C@@H](CO)O2)cc1/C=C/Br             Yes

Okay, now this compound:
IN: Just wondering, is normalized growth of CN(N=O)C(=O)N[C@@H]1[C@@H](O)[C@H](O)[C@@H](CO)O[C@@H]1O below 1?
OUT: No

---

- experimentalDetails: chemical genetic growth profiling, strain panel (AID 1159580);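 further: tested at 20 µM; growth read once vehicle control cultures reached saturation at 30 °C; 1 = growth at the plate median or of vehicle wells; lower values mean less growth of the strain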
- testSettings: S. cerevisiae deletion strains, growth OD, locus YPR141C, strain kar3, hits give low values
The campaign covered roughly 5,500 compounds. About 2,000 (36%) were called active. Inconclusive results (about 18%) are left out. This is one part of the list.
experimentalReadout: normalized growth
Give bare numbers.

Example entries and their recorded answers appear below.
compound	endpointValue
COc1cccc(-c2cc(=O)c3ccc(OC)cc3o2)c1	1
CC1=C2C(=CO[C@H](C)[C@H]2C)C(=O)C(C(=O)O)=C1O	0.957
COc1ccc(-c2cc(=O)c3ccccc3o2)cc1	0.94
CCCN1C[C@H](CSC)C[C@@H]2c3cccc4[nH]cc(c34)C[C@H]21	1.01
COc1ccc(-c2cc(=O)c3ccccc3o2)cc1OC	1.04
C[C@@H]1CC[C@@]2(OC1)OC1C(O)C3C4CC[C@H]5C[C@H](O[C@@H]6O[C@H](CO)[C@H](O[C@@H]7O[C@H](CO)[C@@H](O)[C@H](O[C@@H]8OC[C@@H](O)[C@H](O)[C@H]8O)[C@H]7O[C@@H]7O[C@H](CO)[C@H](O)[C@H](O[C@@H]8O[C@H](CO)[C@@H](O)[C@H](O)[C@H]8O)[C@H]7O)[C@H](O)[C@H]6O)[C@H](O)C[C@]5(C)C4CC[C@]3(C)C1[C@@H]2C (stereo partly specified)	0.0605
O=c1c2ccccc2oc2ccc(O)cc12	0.965
COc1ccc(-c2cc(=O)c3c(OC)cccc3o2)cc1	1.05
COC(=O)C1=C(C)NC(C)=C(C(=O)OC)C1c1ccccc1[N+](=O)[O-]	0.974
O=C(O)/C=C(\CC(=O)O)C(=O)O	0.975

Quick one: give me normalized growth for each item below, same order please.
1. CNCCC=C1c2ccccc2CCc2ccccc21
2. Cc1cc(=O)c2c(o1)-c1c(cc(O)c(O)c1C(=O)O)OC2
3. CC(=O)O.CC(=O)O.[Cd]

OUT:
1. 1.01
2. 1.02
3. 0.418

Quick one: give me normalized growth for each item below, same order please.
1. Cc1coc2ccccc2c1=O
2. COc1ccc(-c2coc3cc(O)cc(O)c3c2=O)cc1
3. CN(C)CC/C=C1/c2ccccc2COc2ccccc21
4. Cc1cc(=O)c2c(O)c3c(cc2o1)OC(C)(C)CC3
5. COC(=O)C1=C(C)NC(C)=C(C(=O)OCCN(C)Cc2ccccc2)C1c1cccc([N+](=O)[O-])c1 (stereo unspecified)
6. O=c1c(-c2cc(O)c(O)c(O)c2)coc2cc(O)c(O)c(O)c12
7. COCCOC(=O)C1=C(C)NC(C)=C(C(=O)OC(C)C)C1c1cccc([N+](=O)[O-])c1 (stereo unspecified)
8. CN(C)CCC=C1c2ccccc2CCc2ccccc21

OUT:
1.03
0.935
1.01
0.946
0.982
1
1.02
1
